- target-under-test: Butyrylcholinesterase from equine serum (Equus caballus, UniProt P81908)
- Construct: using BChE from equine serum (lyophilized powder ≥ 500 units/mg protein); purchased Sigma-Aldrich; host or cells: equine serum
- Sequence (P81908 whole entry): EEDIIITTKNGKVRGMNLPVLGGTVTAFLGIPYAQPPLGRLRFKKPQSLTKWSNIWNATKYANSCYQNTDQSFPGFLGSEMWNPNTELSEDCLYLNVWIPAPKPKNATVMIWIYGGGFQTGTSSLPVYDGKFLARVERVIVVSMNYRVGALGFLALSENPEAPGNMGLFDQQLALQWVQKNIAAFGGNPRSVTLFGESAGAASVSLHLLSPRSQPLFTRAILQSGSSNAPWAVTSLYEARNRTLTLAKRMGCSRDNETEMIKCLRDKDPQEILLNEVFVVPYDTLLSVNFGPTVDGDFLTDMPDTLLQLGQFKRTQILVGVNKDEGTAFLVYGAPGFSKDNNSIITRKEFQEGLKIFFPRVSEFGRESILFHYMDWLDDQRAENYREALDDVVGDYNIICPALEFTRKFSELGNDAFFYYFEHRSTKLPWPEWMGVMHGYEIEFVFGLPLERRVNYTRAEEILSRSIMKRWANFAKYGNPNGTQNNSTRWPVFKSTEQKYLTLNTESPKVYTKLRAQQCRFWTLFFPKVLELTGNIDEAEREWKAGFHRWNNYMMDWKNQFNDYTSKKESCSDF
- experiment-notes: biochemical
- stated-conditions: read-out: BChE (IC50) µg/mL
- Method: The cholinesterase inhibitory potentials of the isolated compounds were evaluated via a spectrophotometric approach, which was adapted by Ellman’s method. […] Each run was carried out in triplicate on three consecutive days. […] The final absorbance of each tested sample was calculated by subtracting the absorbance of their respective blank without enzyme addition. […] Then, the IC50 values of all tested samples and standards were calculated from the curve of the % inhibition versus concentration. […]
pIC50: −log10 of the molar value.
property-label: pIC50

In plain terms, CCCCCCCCCCCCCCCCCCCCOC(=O)CCCCCCCCCCCCCCCCCCC [Compound 1, Arachidyl arachidate] has a documented pIC50 of < 3.60

Next up:
Per the records, this compound ( `O=Cc1ccc(CO)o1` ) has pIC50 equal to < 3.10
